These measurements were taken from patent US20160368879A1.

assayNotes: Thermal decomposition temperature (TG/DTA, 2% weight reduction)
Type: physicochemical
appliedConditions: point of 2% weight reduction; 10° C./minute from 30° C. to 500° C.; nitrogen atmosphere
endpointName: Thermal decomposition temperature (°C)

compound="CC1(C)C2CCC1(CS(=O)(=O)ON1C(=O)c3cccc4c(C(=O)Cc5ccccc5)ccc(c34)C1=O)C(=O)C2 (centres unmarked)" readoutunit=°C measvalue=233
compound="CC1(C)C2CCC1(CS(=O)(=O)ON1C(=O)c3cccc4c(Oc5cccc(C(F)(F)F)c5)ccc(c34)C1=O)C(=O)C2 (centres unmarked)" readoutunit=°C measvalue=243
compound=O=C(Oc1cc2c3c(cccc3c1)C(=O)N(OS(=O)(=O)c1c(F)c(F)c(F)c(F)c1F)C2=O)c1ccccc1 readoutunit=°C measvalue=243
compound="CCCCC(CC)C(=O)Oc1cc2c3c(cccc3c1)C(=O)N(OS(=O)(=O)C(F)(F)F)C2=O (centres unmarked)" readoutunit=°C measvalue=231
compound=CCCC(=O)Oc1cc2c3c(cccc3c1)C(=O)N(OS(=O)(=O)c1c(F)c(F)c(F)c(F)c1F)C2=O readoutunit=°C measvalue=235

---

assayNotes: Thermal decomposition temperature (TG/DTA, 2% weight reduction)
Format: physicochemical
appliedConditions: point of 2% weight reduction; 10° C./minute from 30° C. to 500° C.; nitrogen atmosphere
endpointName: Thermal decomposition temperature (°C)

molecule="O=C1c2cccc3c(Cl)ccc(c23)C(=O)N1OS(=O)(=O)C(F)(F)F [Example A-19]" endpointname="Thermal decomposition temperature" measvalue=220
molecule="O=C1c2cccc3c(Sc4ccccc4)ccc(c23)C(=O)N1OS(=O)(=O)c1c(F)c(F)c(F)c(F)c1F [Example A-27]" endpointname="Thermal decomposition temperature" measvalue=242
molecule="O=C(Oc1cc2c3c(cccc3c1)C(=O)N(OS(=O)(=O)C(F)(F)F)C2=O)c1c(F)c(F)c(F)c(F)c1F [Example A-12]" endpointname="Thermal decomposition temperature" measvalue=242
molecule="O=C1c2cccc3c(Sc4ccccc4)ccc(c23)C(=O)N1OS(=O)(=O)C(F)(F)F [Example A-7]" endpointname="Thermal decomposition temperature" measvalue=240
molecule="c1ccc(Sc2ccc([S+](c3ccccc3)c3ccccc3)cc2)cc1 [A′-2, reference compound]" endpointname="Thermal decomposition temperature" measvalue=340
molecule="CC(C)Oc1ccc2c3c(cccc13)C(=O)N(OS(=O)(=O)C(F)(F)F)C2=O [Example A-1]" endpointname="Thermal decomposition temperature" measvalue=234
molecule="CC1(C)C2CC[C@@]1(CS(=O)(=O)ON1C(=O)c3cccc4cc(OC(=O)c5c(F)c(F)c(F)c(F)c5F)cc(c34)C1=O)C(=O)C2 [Example A-52]" endpointname="Thermal decomposition temperature" measvalue=245
molecule="O=C1c2cc(C34CC5CC(CC(C5)C3)C4)cc3cc(C45CC6CC(CC(C6)C4)C5)cc(c23)C(=O)N1OS(=O)(=O)C(F)(F)F [Example A-15]" endpointname="Thermal decomposition temperature" measvalue=250
molecule="COc1cc2c3c(cccc3c1)C(=O)N(OS(=O)(=O)C[C@]13CCC(CC1=O)C3(C)C)C2=O [Example A-48]" endpointname="Thermal decomposition temperature" measvalue=242
molecule="CCCCC(CC)C(=O)Oc1cc2c3c(cccc3c1)C(=O)N(OS(=O)(=O)c1c(F)c(F)c(F)c(F)c1F)C2=O (centres unmarked) [Example A-29]" endpointname="Thermal decomposition temperature" measvalue=230
molecule="CC1(C)C2CCC1(CS(=O)(=O)ON1C(=O)c3cccc4c(C(F)(F)C(F)(F)C(F)(F)C(F)(F)C(F)(F)C(F)(F)C(F)(F)C(F)(F)F)ccc(c34)C1=O)C(=O)C2 (centres unmarked) [Example A-57]" endpointname="Thermal decomposition temperature" measvalue=246
molecule="C[Si](C)(C)c1ccc2c3c(cccc13)C(=O)N(OS(=O)(=O)C(F)(F)F)C2=O [Example A-18]" endpointname="Thermal decomposition temperature" measvalue=240
molecule="CCCOc1ccc2c3c(cccc13)C(=O)N(OS(=O)(=O)CC13CCC(CC1=O)C3(C)C)C2=O (centres unmarked) [Example A-42]" endpointname="Thermal decomposition temperature" measvalue=245
molecule="CC(C)(C)c1cc2c3c(cc(C(C)(C)C)cc3c1)C(=O)N(OS(=O)(=O)CC13CCC(CC1=O)C3(C)C)C2=O (centres unmarked) [Example A-53]" endpointname="Thermal decomposition temperature" measvalue=247
